# Assay explanation: soluble on expression in E. coli; label from the status in PepcDB or PDB records
Observation type: soluble on expression in E. coli

INSERT INTO results (biopolymer_sequence, observation_type, reading) VALUES
  ('IHNSRWIMTPEVKEDCKMRLFCLPFAGGGALAYRSWCRYMPPEIELCAVQLPGRENRIKDEKFYDINLLIDELVLQILPYLDKPFALYGHSMGGLISFELARRIRKVKGLTPKILFFSGSKAPQLYDHTKDISHLPDELFLKAIKSFNGMPDMFWQDRELIEFKLPTLRADFSVLEGYNYYNEEPLECPISALCGENDKIISKKDMEALALQTKNQFKLRMFDGDHFFINTCRSKVLKSIIEDLN', 'soluble on expression in E. coli', 'not soluble'),
  ('MSLSLDESNTALAEEFDNWDLEFKLWELVDRLFRFRALFSNKAKTELLREYDFSSMGIKQENFLRKNPAIRELSIIILWLQSHTPSLVGDETESYQTKWKNTAMAVANSDFDVLASRATDADLIDKLDIDAPLRSNRSIHPADESNDSKVFAQIYKLLLQDRVQDAIDIANNTGNYALALILVGATQEYFDPVLDKEGHHHHHH', 'soluble on expression in E. coli', 'soluble'),
  ('MHHKAKVIGMLKETIRSGDWKGEKHVPVIEYEREGDLVKVEVSVGKEIPHPNTPEHHIAWIELYFHPEGGQFPILVGRVEFTNHSDPLTEPRAVFFFKTSKKGKLYALSYCNIHGLWENEVQLE', 'soluble on expression in E. coli', 'soluble'),
  ('EFELKDFHVDYSISHPQSQHIQIIVCFKAQDKHEANAGRYRRIKPAWCTTEDGEHVIYYRISASRVDHDITTKYAFLDRDGKPKQIHHSEKLAVELMTLHPVIRLRDSRRFPRPSHINGDSKNARIEKRINNTCRRLLAMPGHVNKGEIRSSLDAMKTLVEHYFAFRSIGKGNPRKPRDGLFYTSPSSDKGLSQYLKETNDKQSRLLLMGLLSAYLQAKGPTDLRRCARPILIIEDPEGRLHPTHLARAWSLLQLLPMQK', 'soluble on expression in E. coli', 'not soluble');

###

# Assay explanation: soluble on expression in E. coli; label from the status in PepcDB or PDB records
Observation type: soluble on expression in E. coli

Field: example entries. Status: answers known.
INSERT INTO measurements (biopolymer_sequence, reading) VALUES
  ('GPGSMSFSHFVPPISRRRMFFEDQLDEALSREGSPRLSTSNTVGGADLVAAGAANDETFPFPSHAAPGHLLKSLIQATENERCAPDILPYPEAIVDSVVAQIVAQNEQIRLLGTDERQKAAGSDSGVSLLPFKPSDIMALEVQRAQFFLCELLRCRLRKIEALALTINYESQSGAEAHTQLREHLSHNEIVVADRLAELISKCVRQAGLQSAPSELQQLVPNAPYAEGNEVLPIPDIDHYVFCVVLDDLGVVRLGDDAEQTVHAGEVFIVPYRTFRPYILEGRVRLV', 'not soluble'),
  ('MSWFISRKDIAYISRGAKLLGCGGGGDTKTTQRLLESIMKEDDQINVLQYEDLTEQVVATVCFAGSPILYEEQLPRGDEGQMVFQEYQLKTNKKIDAVISAEIGGMNALIPLVVALQTGCAVVDGDGMGRAFPEFTMTTFYMHGLPISPLILLTRDGKQHLIEGAANDRIVRDNRQLLNMHGGFGHFICCGADANVVKNMMVSGTLKLAYRLGRAMEQDQLSAAAGWTAVEDEWENSIYGKPTLLIKGTVESVVRTFDQEQIVGELTIIGKQRFIGTTLTVSFHNEFIAVKKEGQYLVMVPDLIIIVNAKTFLPYTTNEIQRGMSVLIYAIPAPNVLRQKQMIDHVGPQAYGLDVPYEPFFLEHHHHHH', 'not soluble'),
  ('MGISPDAASKLYTVKFQPDPIDKKGWSVIDFNNCCTQDGGWYLNMGWGVESLIDNNPGTQWLCRWDVKEPLPYYFVFDMGKEYTLFRFGFANPVAPAAHVWAGTSKAGYVEASIDNENWVKLKDWTSPKIGEPNVNMDVPATQARYIRFVITDTYPTYDGLRVSLGEVYAWGLEHHHHHH', 'soluble'),
  ('MALSLYEKMLHKGMIIKNSNVYEKIKEIDTIIFDKTGTLTYGTPIVTQFIGDSLSLAYAASVEALSSHPIAKAIVKYAKEQGVKILEVKDFKEISGIGVRGKISDKIIEVKKAENNNDIAVYINGEPIASFNISDVPRPNLKDYLEKLKNEGLKIIILSGDKEDKVKELSKELNIQEYYSNLSPEDKVRIIEKLKQNGNKVLMIGDGVNDAAALALADVSVAMGNGVDISKNVADIILVSNDIGTLLGLIKNRKRLSNAIPSN', 'soluble'),
  ('MITMTEVKGKTANESRVFKTSRVFPTDLNDHNTLFGGKILSEMDMVASISASRHSRKECVTASMDWVDFLHPVRSSDCVSYESFVIWTGRTSMEVFVKVVSEYLISGEKRIAATSFVTFVALSKENNPVPVPRVIPDTEEEKESHRIAVLRAEQRHIRKAESKKVATLLTF', 'soluble'),
  ('MAHHHHHHMSKDGNCGGCSAPWGKMPQSPMTPLSDARDSPTAPLCSHSAFSKVNKESSEEESFVVGKYQTSMCPICLESFTHENPAVVVGCGHSFHLQCVEDWRQRSPICPVCMIVLRGDGLPMHTGRQSQRPSEVSPSQRKGRATTSTMTSASSGTTFMVTAGGVHGRVLDTKPPSVVNASAGVEGSGSVVDVGNVSFLSRVRRCMKFCCTCEDDL', 'not soluble'),
  ('YKEFKLKRVYYSGYIPINHEDHALPAVGSAPPLLRENRLYQSDWLMRFYGFAADEIVNPQHPNLDLDVDPKLGWALRHPEQFPVDINRADYRMILRVPGIGVRSAKKIMHARRFGALRIDQLKRMGVAYSRAQHFIYCID', 'not soluble'),
  ('MKQSIRHNKIIELVNQLGYVSTEELVAQLAVSSQTIRRDLNELAEKNLLRRHHGGAGMPSNNENSDYSERKKFFSAQKNIIAQQVAEMIPNGSSLFLDIGTTSEAVAYALLSHQHLRIVTNNLNAAHILMQKDDFQITIAGGDLRADGGIIGEATVNFISEFRLDFGILGISAIDQDGSMLDYDYHEVQVKRALMQSSRQVILVTDHSKFNRRAIVRLGNISEVNYLFTDLPLPLELQQYLAPTNVTVYICNNLEHHHHHH', 'soluble');

Value sought for every listed sequence: soluble on expression in E. coli.
1. SAMLSSTMKIEALLTEKHINLNLGSSSKDEVIDTLIAMVADHDKVRDLKQLAEDVRKREREMSTGIGKNIGLPHAKTSAVTEPVLALATLSNEVDFESIDNQPVKIVFLLATPETMLAEHLKLLGRITRLAGRDDVRRKLIDAATPADVLELFKQEERDLPQI
2. MSLKVVSLLTDFGDFYPGVMKGVILSLAPEARIVDITHSVEPQNILQGAFLLYHSFRYFRNAVHVAVVDPGVGSERRALVIEGKNHFFVGPDNGILYPSAVEDGIKAAYSIKEEISELVGELSSTFHGRDIFAPAAAMVVRGDYTYFEEINKEELEKLELFDCSIQGNKVRCRVVYVDRFGNVVTNLREVKGKGFYFRGVEFPFVKTYSDVDVGKPLSLIGSFGTLELSVREGSAAEMLGIKRGGGWIELEVLEGGSHHHHHH
3. MHGKRIALCASRKLDEMTTLIEKQGGTAIIRPAQGTVFSKGSELGEEMRTVIAMRPDWIVFTTGIGFEALLEAADREGMAAQWHRTIKEANVAARGYKTVTALKQIGVTPVAVSEDGTTKGLIAALYGHDFADKNVVVQLYGDTAPALKQFFLEQGALYTELLPYRHIAPDEETLATLYKEIVGREVDAVCFTSAMQVRFFFSFAREKKEIAPLLDAFRTDVVACAVGKVTKEALEEEGVDRVIAPEHERMGAMIVTLARYFGA
4. MKKLAIAGALLLLAGCAEVENYNNVVKTPAPDWLAGYWQTKGPQRALVSPEAIGSLIVTKEGDTLDCRQWQRVIAVPGKLTLMSDDLTNVTVKRELYEVERDGNTIEYDGMTMERVDRPTAECAAALDKAPLPTPLPLEHHHHHH
5. ANQPDWADEAANGAHQDAWKSLKARVENVYYMVKATYKNDPVWGNDFTCVGVMANDVNEDEKSIQAEFLFMNNADTNMQFATEKVTAVKMYGYNRENAFRYETEDGQVFTDVIAYSDDNCDVIYVPGTDGNEEGYELWTTDYDNIPANCLNKFNEYAVGRETRDVFTSACLE

["not soluble", "soluble", "not soluble", "soluble", "soluble"]

###

# Assay explanation: soluble on expression in E. coli; label from the status in PepcDB or PDB records
Observation type: soluble on expression in E. coli

Field: example entries. Status: answers known.
INSERT INTO assay_data (biopolymer_sequence, observation_type, reading) VALUES
  ('MGHHHHHHSHIEETTMTTQTPAPIQAPSAILPLPGQSVERLCVDPRHRQGPVNLLSDPEQGVEVTGQYEREKAGFSWIEVTFKNPLVWVHASPEHVVVTRNRRSSAYKWKETLFSVMPGLKMTMDKTGLLLLSDPDKVTIGLLFWDGRGEGLRLLLRDTDRFSSHVGGTLGQFYQEVLWGSPAASD', 'soluble on expression in E. coli', 'not soluble'),
  ('MSLMNAEQGVCAWAMNHPLEREYHDKEWGRAVHDDTKLFEFLTLEGAQAGLSWLTVLKKREGYRQAFLGYDLQRLAQCDESHVEQIIAEYDVVKHRGKIASVFSNARAALALQQEFGSLDAALWQFVGGQPKINRWVSMSDVPASTEESKAMSKFLKKRGFKFVGETICYAFMQACGLVNDHLVGCPNHSNADKLEGGSHHHHHH', 'soluble on expression in E. coli', 'soluble'),
  ('DGLEGMDDPDATSKKVVPLGVEIYEINGPFFFGVADRLKGVLDVIEETPKVFILRMRRVPVIDATGMHALWEFQESCEKRGTILLLSGVSDRLYGALNRFGFIEALGEERVFDHIDKALAYAKLLVETAEER', 'soluble on expression in E. coli', 'not soluble'),
  ('MGEKAFKRPNVLSTIGAFGYRAAVFRNVLEAAKLDPSIYYTFISGPEIDPEQFSKVPENVEFTGFTENPFPYYKGSDLVITAGGHGTIMESLAFGLPILSFPDEKHAEQENNASVLEEAGYGKRMSYLTPPEVILACIREIFEDENYSKKTRRLMELAEVLEHHHHHH', 'soluble on expression in E. coli', 'soluble'),
  ('MDPYQQGGRGGGFPARGGRGGGHGGGYPQEGYGAAAGGYGGYDPYNPYGAAGGYGMYPGQGYPPQEMTSPLDAEIQAVLREIHLEVTGLETSGDQFRNARRLLNSEKERLENNIDPEWLEVDVAKPVKVCKKILVPIYRHPNFNFIGKVLGPKGATLQTLCKTHKCHIYILGRGSTKDREKEAELLASGDPQHAHFSGPLHVKVETVAPAYIAYGRVAAVIEELSRILQPIHEDTTPAHLKNGSGDGEEKEDEEKKEGGEGGGRGGRGGRGGFRGGFRGGRGGFGGPGGPMGGRGGMGGMGGRGRGGQAAGFRPY', 'soluble on expression in E. coli', 'not soluble'),
  ('MGSDKIHHHHHHMFSVEQLQAFITTVETGSFSAAARRLNKVQSVVSQHVINLEVDCNILLFDRSGRYPALTEAGEKLLPHAQAVIDQHQRLKNSALSLTDNTPKEITIALDEGISFKLISGIISNLQNEFPNITLEFLSASSPDIIDMLKNEKALTGIVFSELTIPSYLDFECIGSIKFDLYVAKSHPLANQVCKNIDSLRLHRQLLIRSRNTQSSSFQLKLSPNVWYADNYFLLLELALQGNGWCLLPNHIANESVESGQLVKLPLEFEEMGWQANVDVVQHQRHSNLAVFKVLRLLLRNLL', 'soluble on expression in E. coli', 'not soluble');

// moving on: another record for soluble on expression in E. coli
GET /values?readout=soluble on expression in E. coli&item= "PAPTPSSSPVPTLSPEQQEMLQAFSTQSGMNLEWSQKCLQDNNWDYTRSAQAFTHLKAKGEIPEVAFMK"
soluble
